Test system: Staphylococcus aureus
Assay: Antibacterial activity against methicillin-resistant Staphylococcus aureus XJ036 assessed as inhibition of bacterial growth incubated for 18 hrs by two fold serial dilution assay
Assay type: functional
READOUT_LABEL: MIC (µg/mL)
Dear colleague, please return just the value in µg/mL, with no unit written.

Using the record for CC1(C)c2nc3ccccc3nc2C[C@]2(C)[C@H]3C[C@@H](O)[C@@H]4[C@@H]([C@@](C)(O)CCC(N)=O)CC[C@@]4(C)[C@]3(C)CC[C@@H]12 , report its MIC. 4

Using the record for CN(C)C(=O)CC[C@](C)(O)[C@H]1CC[C@]2(C)[C@@H]1[C@H](O)C[C@@H]1[C@@]3(C)Cc4nc5ccccc5nc4C(C)(C)[C@@H]3CC[C@]12C , report its MIC. 8

Using the record for CCNC(=O)CC[C@](C)(O)[C@H]1CC[C@]2(C)[C@@H]1[C@H](O)C[C@@H]1[C@@]3(C)Cc4nc5ccccc5nc4C(C)(C)[C@@H]3CC[C@]12C , report its MIC. 4

Using the record for CC1(C)c2nc3ccccc3nc2C[C@]2(C)[C@H]3C[C@@H](O)[C@@H]4[C@@H]([C@@](C)(O)CCC(=O)Nc5nccs5)CC[C@@]4(C)[C@]3(C)CC[C@@H]12 , report its MIC. 1
